Kq value (Stern–Volmer quenching constant) against BSA for assorted compounds
- Test Target: bovine serum albumin (BSA) (Bos taurus)
- Construct: BSA (F-V) and HSA (F-V) were purchased from Nacalai Tesque (Kyoto, Japan); purchased Nacalai Tesque (Kyoto, Japan)
- Sequence (P02769 25-607): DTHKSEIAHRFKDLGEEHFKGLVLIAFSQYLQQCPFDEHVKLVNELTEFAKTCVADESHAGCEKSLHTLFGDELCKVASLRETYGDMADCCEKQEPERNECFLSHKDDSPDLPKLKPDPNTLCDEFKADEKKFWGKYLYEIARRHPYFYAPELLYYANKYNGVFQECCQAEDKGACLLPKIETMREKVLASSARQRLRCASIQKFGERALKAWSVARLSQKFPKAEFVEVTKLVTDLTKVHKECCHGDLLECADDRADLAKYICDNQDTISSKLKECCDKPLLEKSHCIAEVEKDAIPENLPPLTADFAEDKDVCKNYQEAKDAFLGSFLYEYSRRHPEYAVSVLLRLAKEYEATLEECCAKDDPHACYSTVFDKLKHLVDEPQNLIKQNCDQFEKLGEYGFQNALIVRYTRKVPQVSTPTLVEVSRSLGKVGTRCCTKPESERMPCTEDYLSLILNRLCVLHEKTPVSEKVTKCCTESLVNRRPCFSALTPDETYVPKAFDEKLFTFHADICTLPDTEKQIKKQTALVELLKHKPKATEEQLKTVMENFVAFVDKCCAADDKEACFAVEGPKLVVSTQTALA
- Assay Method Text: Trp fluorescence quenching of BSA (Stern–Volmer analysis)
- Assay type: binding
- Experimental Conditions: 0.3 mg/mL BSA, 20 °C, 50 mM sodium phosphate buffer pH 7.0, excitation 280 nm; means ± SE
Endpoint: Kq value (Stern–Volmer quenching constant) against BSA

Compound	Val
Oc1cc(O)c2c(c1)O[C@H](c1ccc(O)c(O)c1)[C@@H](O)C2 [(+)-C, catechin]	0.005
Oc1cc(O)c2c(c1)O[C@H](c1cc(O)c(O)c(O)c1)[C@H](O)C2	0.001
Oc1cc(O)c2c(c1)O[C@H](c1cc(O)c(O)c(O)c1)[C@@H](O)C2	0.001
O=C(O[C@H]1Cc2c(O)cc(O)cc2O[C@@H]1c1ccc(O)c(O)c1)c1cc(O)c(O)c(O)c1 [Cg, (−)-catechin gallate]	0.034
COc1cc(C(=O)O[C@@H]2Cc3c(O)cc(O)cc3O[C@@H]2c2cc(O)c(O)c(O)c2)cc(O)c1O [Methyl-EGCg, epigallocatechin-3-O-methyl gallate]	0.150

---

- Test Target: human serum albumin (HSA) (Homo sapiens)
- Construct: BSA (F-V) and HSA (F-V) were purchased from Nacalai Tesque (Kyoto, Japan); purchased Nacalai Tesque (Kyoto, Japan)
- Assay Method Text: Trp fluorescence quenching of HSA (Stern–Volmer analysis)
- Type: binding
- Set-up: unit not given here
- Experimental Conditions: 0.3 mg/mL HSA, excitation 280 nm; means ± SE
Endpoint: Kq value (Stern–Volmer quenching constant) against HSA

Molecule	Val
O=C(O[C@@H]1Cc2c(O)cc(O)cc2O[C@@H]1c1ccc(O)c(O)c1)c1cc(O)c(O)c(O)c1	0.007
O=C(O[C@@H]1Cc2c(O)cc(O)cc2O[C@@H]1c1cc(O)c(O)c(O)c1)c1cc(O)c(O)c(O)c1 [EGCg, (−)-epigallocatechin gallate]	0.033
O=C(O[C@H]1Cc2c(O)cc(O)cc2O[C@@H]1c1ccc(O)c(O)c1)c1cc(O)c(O)c(O)c1 [Cg, (−)-catechin gallate]	0.011
Oc1cc(O)c2c(c1)O[C@H](c1cc(O)c(O)c(O)c1)[C@H](O)C2	0.001
O=C(O[C@H]1Cc2c(O)cc(O)cc2O[C@@H]1c1cc(O)c(O)c(O)c1)c1cc(O)c(O)c(O)c1	0.009

---

- Test Target: bovine serum albumin (BSA) (Bos taurus)
- Construct: BSA (F-V) and HSA (F-V) were purchased from Nacalai Tesque (Kyoto, Japan); purchased Nacalai Tesque (Kyoto, Japan)
- Assay Method Text: Trp fluorescence quenching of BSA (Stern–Volmer analysis)
- Type: binding
- Experimental Conditions: 0.3 mg/mL BSA, 20 °C, 50 mM sodium phosphate buffer pH 7.0, excitation 280 nm; means ± SE
Endpoint: Kq value (Stern–Volmer quenching constant) against BSA

Compound	Val
Oc1cc(O)c2c(c1)O[C@H](c1ccc(O)c(O)c1)[C@H](O)C2 [(−)-EC, epicatechin]	0.005 ± 0.0011
O=C(O[C@@H]1Cc2c(O)cc(O)cc2O[C@@H]1c1ccc(O)c(O)c1)c1cc(O)c(O)c(O)c1	0.060 ± 0.0118
O=C(O[C@@H]1Cc2c(O)cc(O)cc2O[C@@H]1c1cc(O)c(O)c(O)c1)c1cc(O)c(O)c(O)c1 [EGCg, (−)-epigallocatechin gallate]	0.225 ± 0.0192
O=C(O[C@H]1Cc2c(O)cc(O)cc2O[C@@H]1c1cc(O)c(O)c(O)c1)c1cc(O)c(O)c(O)c1	0.019 ± 0.0030

---

- Test Target: human serum albumin (HSA) (Homo sapiens, UniProt P02768)
- Construct: BSA (F-V) and HSA (F-V) were purchased from Nacalai Tesque (Kyoto, Japan); purchased Nacalai Tesque (Kyoto, Japan)
- Sequence (P02768 25-609): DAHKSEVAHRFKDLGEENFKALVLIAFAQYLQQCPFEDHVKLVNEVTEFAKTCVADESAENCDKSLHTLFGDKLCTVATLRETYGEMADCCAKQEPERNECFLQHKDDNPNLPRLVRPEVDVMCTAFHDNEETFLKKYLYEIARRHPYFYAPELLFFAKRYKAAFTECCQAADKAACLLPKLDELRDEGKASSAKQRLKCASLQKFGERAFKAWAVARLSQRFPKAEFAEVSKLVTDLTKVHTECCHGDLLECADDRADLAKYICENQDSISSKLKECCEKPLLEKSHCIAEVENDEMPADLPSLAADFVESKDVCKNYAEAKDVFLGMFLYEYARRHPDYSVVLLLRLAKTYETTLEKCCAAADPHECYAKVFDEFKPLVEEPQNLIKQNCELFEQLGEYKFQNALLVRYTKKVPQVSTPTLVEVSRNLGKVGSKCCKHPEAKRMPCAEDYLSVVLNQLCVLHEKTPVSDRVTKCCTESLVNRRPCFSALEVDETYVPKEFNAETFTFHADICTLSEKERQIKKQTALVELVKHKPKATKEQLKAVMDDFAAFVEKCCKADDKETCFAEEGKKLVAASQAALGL
- Assay Method Text: Trp fluorescence quenching of HSA (Stern–Volmer analysis)
- Assay type: binding
- Experimental Conditions: 0.3 mg/mL HSA, excitation 280 nm; means ± SE
Endpoint: Kq value (Stern–Volmer quenching constant) against HSA

Compound	Val
Oc1cc(O)c2c(c1)O[C@H](c1ccc(O)c(O)c1)[C@H](O)C2 [(−)-EC, epicatechin]	0.006
Oc1cc(O)c2c(c1)O[C@H](c1cc(O)c(O)c(O)c1)[C@@H](O)C2	0.001
Oc1cc(O)c2c(c1)O[C@H](c1ccc(O)c(O)c1)[C@@H](O)C2 [(+)-C, catechin]	0.002
COc1cc(C(=O)O[C@@H]2Cc3c(O)cc(O)cc3O[C@@H]2c2cc(O)c(O)c(O)c2)cc(O)c1O [Methyl-EGCg, epigallocatechin-3-O-methyl gallate]	0.014
